- ASSAY_CONTEXT: in ethanol, 313.15 K
MEASURE: solubility (mole fraction)
Could you keep your reply to the number by itself?

In: What solubility (mole fraction) value was documented for this molecule, c1ccc(-c2ccc(C(c3ccccc3)n3ccnc3)cc2)cc1 (stereo unspecified) ?
Out: 0.00965

###

- ASSAY_CONTEXT: in DMF, 293.15 K
MEASURE: solubility (mole fraction)
Just the number, please, no unit attached.

In: # input compound: c1ccc(-c2ccc(C(c3ccccc3)n3ccnc3)cc2)cc1 (stereo unspecified) ; wanted: its solubility (mole fraction)
Out: 0.0208

###

- ASSAY_CONTEXT: in n-pentanol, 293.15 K
MEASURE: solubility (mole fraction)

In: Endpoint output: solubility (mole fraction) of c1ccc(-c2ccc(C(c3ccccc3)n3ccnc3)cc2)cc1 (stereo unspecified) . Value?
Out: 0.00739
